# test.target: hMrgpMRGPRX2 (Homo sapiens)
# Construct: expressed in transfected cells
# protocol: FLIPR intracellular calcium mobilization, antagonist activity in recombinant hMrgpMRGPRX2 expressing cells
# Type: cell-based
# conditions: read-out: Human MrgprX2 Antagonist pIC50 (converted)
readout: IC50 (nM)

>  <compound>
CC1(C(=O)Nc2ccc(Oc3ccc(F)c(F)c3)cn2)CCOC1 (centres unmarked)

>  <readout>
IC50

>  <recorded.number>
5010

$$$$
>  <compound>
CC1(C)C(C(=O)Nc2cc(OCC(F)(F)F)ccn2)C1(C)C

>  <readout>
IC50

>  <recorded.number>
2000

$$$$

1: CC1(C)CC1C(=O)Nc1cc(Cl)ccn1 (centres unmarked)
2: CN(C[C@@H](O)C(F)(F)F)C(=O)Nc1ccc(Oc2ccc(F)c(F)c2)cn1
3: CCN(C[C@H](C)O)C(=O)Nc1cnc(Oc2cc(F)cc(F)c2)cn1
Order each entry by recorded IC50, climbing from the minimum. Order the labels as requested and list them.
2, 3, 1

---

# test.target: hMrgpMRGPRX2 (Homo sapiens)
# Construct: expressed in transfected cells
# protocol: FLIPR intracellular calcium mobilization, antagonist activity in recombinant hMrgpMRGPRX2 expressing cells
# Type: cell-based
# conditions: read-out: Human MrgprX2 Antagonist pIC50 (converted)
readout: IC50 (nM)

>  <molecule>
O=C(Nc1ccc(-c2cc(F)cc(F)c2)cn1)C1CC1

>  <unit.text>
nM

>  <recorded.number>
200

$$$$

I: CCN(C[C@@](C)(O)C(F)(F)F)C(=O)Nc1cnc(Oc2cc(F)ccc2F)cn1
II: CC1(C(=O)Nc2ccc(Oc3cccc(F)c3)cn2)CCOC1 (stereo not drawn)
III: C[C@H](O)CN(C)C(=O)Nc1ccc(Oc2cccc(F)c2)cn1
Order each entry by recorded IC50, climbing from the minimum. Order the labels as requested and list them.
I, III, II
(I: 1.7 nM, III: 1580 nM, II: 6310 nM)

P: CC(C)C(=O)Nc1ccc(Oc2cccc(F)c2F)cn1
Q: CC1(C(=O)Nc2ccc(Oc3cccc(F)c3)cn2)CCOCC1
Identify the entry with the smaller IC50: P or Q . // respond with label for picked entry
P

---

# test.target: hMrgpMRGPRX2 (Homo sapiens)
# Construct: expressed in transfected cells
# protocol: FLIPR intracellular calcium mobilization, antagonist activity in recombinant hMrgpMRGPRX2 expressing cells
# Assay type: cell-based
# conditions: read-out: Human MrgprX2 Antagonist pIC50 (converted)
readout: IC50 (µM)

1: O=C(Nc1cc(Oc2cc(F)cc(F)c2)ccn1)C1CC1
2: CCN(C[C@@H](O)C(F)(F)F)C(=O)Nc1cc(Oc2cccc(F)c2)c(F)cn1
3: CC(C)C(=O)Nc1ccc(Cc2cccc(F)c2)cn1
4: CC(C)C(=O)Nc1ccc(-c2cccc(C#N)c2)cn1
5: CC(C)C(=O)Nc1cnc(Oc2ccccc2)cn1
Could you put the items above in increasing order of their IC50? Order the labels as requested and list them.
2, 4, 3, 1, 5

---

# test.target: hMrgpMRGPRX2 (Homo sapiens)
# Construct: expressed in transfected cells
# protocol: FLIPR intracellular calcium mobilization, antagonist activity in recombinant hMrgpMRGPRX2 expressing cells
# Format: cell-based
# conditions: read-out: Human MrgprX2 Antagonist pIC50 (converted)
readout: IC50 (nM)

Consider the worked cases shown below.
>  <molecule>
O=C(Nc1ccc(Oc2ccc(F)c(F)c2)cn1)C1CCCC1 [Compound E031]

>  <recorded.number>
63.1

$$$$
>  <molecule>
CC1(C)CC1C(=O)Nc1ccc(-c2cc(F)cc(F)c2)cn1 (stereo not drawn) [Compound E180]

>  <recorded.number>
12.6

$$$$
>  <molecule>
CC1(C)C(C(=O)Nc2ccc(C#N)cn2)C1(C)C [Compound E206]

>  <recorded.number>
251

$$$$
>  <molecule>
CC1(C)C(C(=O)Nc2ccc(Cl)cn2)C1(C)C [Compound E204]

>  <recorded.number>
1.58

$$$$
>  <molecule>
CCN(C[C@@H](O)C(F)(F)F)C(=O)Nc1ccc(F)cn1 [Compound E196]

>  <recorded.number>
851

$$$$

I: CCN(C[C@@H](O)C(F)(F)F)C(=O)Nc1cc(Oc2ccc(F)cc2)ccn1 [Compound E155]
II: CC(C)NC(=O)Nc1ccc(Oc2ccc(F)c(F)c2)cn1 [Compound E107]
Identify the entry with the smaller IC50: I or II . // respond with label for picked entry
I
(I: 25.1 nM, II: 6310 nM)

P: CC1(C)CC1C(=O)Nc1cnc(Oc2ccc(F)c(F)c2)cn1 (stereo not drawn) [Compound E225]
Q: CC(C)C(=O)Nc1ccc(Oc2cncc(F)c2)cn1 [Compound E051]
Hi, I'm comparing P with Q and wondering which one has the bigger number for IC50. Any idea? // respond with label for picked entry
Q

I: CCN(C[C@@H](O)C(F)(F)F)C(=O)Nc1ccc(-c2cc(F)cc(F)c2)cn1 [Compound E194]
II: COc1ccc(-c2ccc(NC(=O)C(C)C)nc2)cc1 [Compound E172]
Hi, I'm comparing I with II and wondering which one has the bigger number for IC50. Any idea? // respond with label for picked entry
II
(II: 316 nM, I: 214 nM)

---

# test.target: hMrgpMRGPRX2 (Homo sapiens, UniProt Q96LB1)
# Construct: expressed in transfected cells
# Sequence (Q96LB1 whole entry): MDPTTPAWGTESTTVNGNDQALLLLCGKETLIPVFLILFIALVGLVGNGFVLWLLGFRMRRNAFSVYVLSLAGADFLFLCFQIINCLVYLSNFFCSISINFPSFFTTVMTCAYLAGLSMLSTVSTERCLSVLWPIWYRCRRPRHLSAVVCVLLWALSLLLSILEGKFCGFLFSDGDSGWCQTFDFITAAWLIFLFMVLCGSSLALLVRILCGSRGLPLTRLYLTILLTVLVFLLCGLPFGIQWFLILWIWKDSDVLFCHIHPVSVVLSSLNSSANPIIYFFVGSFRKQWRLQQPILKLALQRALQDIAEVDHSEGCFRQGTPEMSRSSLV
# protocol: FLIPR intracellular calcium mobilization, antagonist activity in recombinant hMrgpMRGPRX2 expressing cells
# Assay type: cell-based
# conditions: read-out: Human MrgprX2 Antagonist pIC50 (converted)
readout: IC50 (nM)

Consider the worked cases shown below.
>  <molecule>
CC1(C)C(C(=O)Nc2cnc(Oc3cc(F)cc(F)c3)cn2)C1(C)C

>  <IC50, nM>
1.58

$$$$
>  <molecule>
NS(=O)(=O)N1CCC[C@@H]1C(=O)Nc1ccc(Oc2ccc(F)c(F)c2)cn1

>  <IC50, nM>
1910

$$$$
>  <molecule>
CC1(C)C(C(=O)Nc2ccc(OCC(F)(F)F)cn2)C1(C)C

>  <IC50, nM>
31.6

$$$$
>  <molecule>
CC1(C)C(C(=O)Nc2cc(Oc3ccc(F)nc3)ccn2)C1(C)C

>  <IC50, nM>
30.2

$$$$

I: CC(C)C(=O)Nc1ccc(OC2CCCC2)cn1
II: COC(C)(C)C(=O)Nc1ccc(Oc2ccc(F)c(F)c2)cn1
III: C[C@]1(C(=O)Nc2ccc(Oc3cc(F)ccc3F)cn2)CCCN1S(N)(=O)=O
IV: CC1(C)CC1C(=O)Nc1ccc(Oc2cncc(F)c2)cn1 (stereo not drawn)
V: CCN(C[C@@H](O)C(F)(F)F)C(=O)Nc1ccc(Oc2c(F)cccc2C#N)cn1
Order each entry by recorded IC50, climbing from the minimum. Order the labels as requested and list them.
III, V, IV, II, I
(III: 81.3 nM, V: 158 nM, IV: 501 nM, II: 1000 nM, I: 1580 nM)

---

# test.target: hMrgpMRGPRX2 (Homo sapiens, UniProt Q96LB1)
# Construct: expressed in transfected cells
# protocol: FLIPR intracellular calcium mobilization, antagonist activity in recombinant hMrgpMRGPRX2 expressing cells
# Assay type: cell-based
# conditions: read-out: Human MrgprX2 Antagonist pIC50 (converted)
readout: IC50 (nM)

Consider the worked cases shown below.
>  <molecule>
CC1(C)C(C(=O)Nc2ccc(N3CCC(O)C3)cn2)C1(C)C (stereo not drawn)

>  <unit.text>
nM

>  <recorded.number>
1050

$$$$
>  <molecule>
CC(C)C(=O)Nc1ccc(Oc2ccccc2F)cn1

>  <unit.text>
nM

>  <recorded.number>
79.4

$$$$
>  <molecule>
CC1(C)C(C(=O)Nc2ccc(C3=COCC3)cn2)C1(C)C

>  <unit.text>
nM

>  <recorded.number>
14.5

$$$$
>  <molecule>
CN(C)C(=O)Nc1ccc(-c2cc(F)cc(F)c2)cn1

>  <unit.text>
nM

>  <recorded.number>
6310

$$$$
>  <molecule>
CC1(C)C(C(=O)Nc2ccc(N3CCC(F)C3)cn2)C1(C)C (stereo not drawn)

>  <unit.text>
nM

>  <recorded.number>
25.1

$$$$

1: CC(C)C(=O)Nc1ccc(Oc2ccc(F)c(C#N)c2)cn1
2: CC1(C(=O)Nc2ccc(Oc3ccc(F)c(F)c3)cn2)CC1
3: CCN(C[C@@H](O)C(F)(F)F)C(=O)Nc1cnc(Oc2ccc(F)c(F)c2)cn1
Please list these molecules in decreasing order of IC50. Order the labels as requested and list them.
1, 2, 3

---

# test.target: hMrgpMRGPRX2 (Homo sapiens)
# Construct: expressed in transfected cells
# protocol: FLIPR intracellular calcium mobilization, antagonist activity in recombinant hMrgpMRGPRX2 expressing cells
# Format: cell-based
# conditions: read-out: Human MrgprX2 Antagonist pIC50 (converted)
readout: IC50 (nM)

>  <molecule>
CC1(C)C(C(=O)Nc2ccc(Oc3ccc(C(N)=O)nc3)cn2)C1(C)C [Compound E076]

>  <unit.text>
nM

>  <IC50>
1260

$$$$
>  <molecule>
CC1(C)C(C(=O)Nc2ccc(-n3cccn3)cn2)C1(C)C [Compound E199]

>  <unit.text>
nM

>  <IC50>
33.9

$$$$

P: CC(O)(C(=O)Nc1ccc(Oc2cccc(F)c2)cn1)C(F)(F)F (centres unmarked) [Compound E013]
Q: C[C@@H](C(=O)Nc1ccccn1)c1ccccc1 [Compound E210]
R: CCN(C[C@H](C)O)C(=O)Nc1ccc(-c2ccccc2)cn1 [Compound E195]
Order each entry by recorded IC50, climbing from the minimum. Order the labels as requested and list them.
P, Q, R

Data credit: patent US20230027929A1
